Hello, the source for this data is patent US9944641B2, in case you need it.

- target system: FLT3-ITD (Homo sapiens, UniProt P36888)
- Construct: fused on or other part: GST tag (detected with the Europium-tagged anti-GST antibody)
- measurement description: Lanthascreen TR-FRET enzymatic assay, FLT3-ITD
- settings: 1 hour at 25° C., 1% DMSO, read-out: Enzymology (IC50) FLT3-ITD
measurement name: IC50

Known results for compounds:
structure smiles	measurement name	reported
COc1cc2c(cc1N)c(=O)n(C)c1cnc(Nc3ccc(OCCN4CCCC4)cc3)nc21	IC50	< 25 nM
Cn1c(=O)c2cc(N)ccc2c2nc(Nc3ccc(F)c(N)c3)ncc21	IC50	< 25 nM

Incoming: Notebook entry, FLT3-ITD (Homo sapiens, UniProt P36888) assay: IC50 of `Cn1c(=O)c2cc(N)ccc2c2nc(Nc3cccc(N)c3)ncc21` = ?
Outgoing: < 25 nM

Incoming: What IC50 appears in the records for this compound with FLT3-ITD (Homo sapiens, UniProt P36888)? `CN1CCN(c2cccc(Nc3ncc4c(n3)c3ccc(N)cc3c(=O)n4C)c2)CC1`
Outgoing: < 25 nM

* * *

- target system: UniProtKB O60674
- Sequence (O60674 whole entry): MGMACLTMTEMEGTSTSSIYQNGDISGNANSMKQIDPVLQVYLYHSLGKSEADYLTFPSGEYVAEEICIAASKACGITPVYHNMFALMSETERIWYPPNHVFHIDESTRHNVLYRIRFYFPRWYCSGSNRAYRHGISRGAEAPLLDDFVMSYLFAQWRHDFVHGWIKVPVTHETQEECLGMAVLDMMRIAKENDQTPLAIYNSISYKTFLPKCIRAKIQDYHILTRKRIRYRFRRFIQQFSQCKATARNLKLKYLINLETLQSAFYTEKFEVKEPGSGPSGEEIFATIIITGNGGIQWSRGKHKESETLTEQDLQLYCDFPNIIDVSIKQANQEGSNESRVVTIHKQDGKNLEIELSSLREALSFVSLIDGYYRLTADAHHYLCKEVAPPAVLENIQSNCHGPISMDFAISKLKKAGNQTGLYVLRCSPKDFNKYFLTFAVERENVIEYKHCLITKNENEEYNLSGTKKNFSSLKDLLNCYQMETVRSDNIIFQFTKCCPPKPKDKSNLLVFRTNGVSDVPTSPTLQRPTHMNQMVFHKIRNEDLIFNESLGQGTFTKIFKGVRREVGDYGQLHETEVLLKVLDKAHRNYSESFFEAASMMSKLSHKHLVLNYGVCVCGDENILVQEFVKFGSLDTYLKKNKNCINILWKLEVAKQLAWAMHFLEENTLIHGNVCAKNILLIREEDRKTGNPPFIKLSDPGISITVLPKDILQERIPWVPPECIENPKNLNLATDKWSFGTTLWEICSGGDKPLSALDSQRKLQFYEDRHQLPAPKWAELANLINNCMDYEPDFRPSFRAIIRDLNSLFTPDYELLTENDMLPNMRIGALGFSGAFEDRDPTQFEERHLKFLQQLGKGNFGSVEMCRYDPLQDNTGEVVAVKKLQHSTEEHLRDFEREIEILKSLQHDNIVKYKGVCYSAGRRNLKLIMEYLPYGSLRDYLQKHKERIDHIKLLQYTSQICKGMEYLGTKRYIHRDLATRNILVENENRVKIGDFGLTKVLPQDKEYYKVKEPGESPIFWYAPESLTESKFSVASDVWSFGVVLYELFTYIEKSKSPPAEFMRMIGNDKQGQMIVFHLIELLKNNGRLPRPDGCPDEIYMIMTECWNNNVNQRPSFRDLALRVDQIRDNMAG
- measurement description: Lanthascreen TR-FRET enzymatic assay, JAK2
- settings: recombinant JAK2, 1 hour at 25° C., 1% DMSO; read-out: Enzymology (IC50) JAK2
measurement name: IC50

Consider the reported IC50 for these compounds:
structure smiles	IC50
CN1CCN(c2cccc(Nc3ncc4c(n3)c3ccc(N)cc3c(=O)n4C)c2)CC1	100 to 1000 nM
COc1cc2c(cc1N)c(=O)n(C)c1cnc(Nc3cc(N)cc(F)c3)nc21	100 to 1000 nM
COc1cc2c(cc1N)c(=O)n(C)c1cnc(Nc3ccc(OCCN4CCCC4)cc3)nc21	100 to 1000 nM
COc1cc2c(cc1N)c(=O)n(C)c1cnc(Nc3ccc(N4CCN(C)CC4)cc3)nc21	100 to 1000 nM
Cn1c(=O)c2cc(N)ccc2c2nc(Nc3ccc(F)c(N)c3)ncc21	100 to 1000 nM
Cn1c(=O)c2cc(N)ccc2c2nc(Nc3cccc(N)c3)ncc21	25 to 100 nM
Cn1c(=O)c2cc(N)ccc2c2nc(Nc3ccc(OCCN4CCCC4)cc3)ncc21	100 to 1000 nM
CN1CCN(c2ccc(Nc3ncc4c(n3)c3ccc(N)cc3c(=O)n4C)cc2)CC1	100 to 1000 nM

Kindly review the next compound as well.
Incoming: Which IC50 reading was recorded for the compound `COc1cc2c(cc1N)c(=O)n(C)c1cnc(Nc3ccc(F)c(N)c3)nc21` ?
Outgoing: 100 to 1000 nM

* * *

- target system: JAK3 (Homo sapiens)
- Sequence (P52333 whole entry): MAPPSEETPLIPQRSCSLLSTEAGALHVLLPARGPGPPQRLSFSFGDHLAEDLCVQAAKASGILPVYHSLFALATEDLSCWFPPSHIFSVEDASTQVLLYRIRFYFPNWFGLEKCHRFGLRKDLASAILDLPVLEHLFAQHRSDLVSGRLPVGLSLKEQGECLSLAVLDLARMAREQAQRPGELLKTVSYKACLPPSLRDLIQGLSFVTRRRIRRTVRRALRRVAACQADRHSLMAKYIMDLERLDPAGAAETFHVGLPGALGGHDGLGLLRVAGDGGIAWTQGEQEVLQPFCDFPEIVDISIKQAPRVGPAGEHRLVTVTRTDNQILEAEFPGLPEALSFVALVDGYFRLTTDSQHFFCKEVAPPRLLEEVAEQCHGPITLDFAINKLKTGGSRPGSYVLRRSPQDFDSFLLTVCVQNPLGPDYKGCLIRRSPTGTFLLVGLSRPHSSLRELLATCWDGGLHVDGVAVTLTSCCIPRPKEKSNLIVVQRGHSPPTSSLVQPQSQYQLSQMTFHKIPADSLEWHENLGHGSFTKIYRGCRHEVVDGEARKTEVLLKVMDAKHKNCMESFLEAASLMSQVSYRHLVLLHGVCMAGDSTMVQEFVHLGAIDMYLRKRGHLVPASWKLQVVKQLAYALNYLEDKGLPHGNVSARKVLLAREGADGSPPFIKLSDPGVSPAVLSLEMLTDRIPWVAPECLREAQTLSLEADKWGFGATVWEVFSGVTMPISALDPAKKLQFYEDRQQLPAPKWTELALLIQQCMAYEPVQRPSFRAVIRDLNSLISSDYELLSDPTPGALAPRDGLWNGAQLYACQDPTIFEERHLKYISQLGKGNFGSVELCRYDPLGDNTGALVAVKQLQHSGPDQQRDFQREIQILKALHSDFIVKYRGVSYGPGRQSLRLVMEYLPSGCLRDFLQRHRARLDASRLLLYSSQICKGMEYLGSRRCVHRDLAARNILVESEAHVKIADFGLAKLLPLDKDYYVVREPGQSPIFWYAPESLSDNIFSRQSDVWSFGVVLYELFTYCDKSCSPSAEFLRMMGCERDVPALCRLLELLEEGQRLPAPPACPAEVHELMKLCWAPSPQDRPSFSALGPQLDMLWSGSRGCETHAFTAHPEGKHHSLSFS
- measurement description: Lanthascreen TR-FRET enzymatic assay, JAK3
- settings: recombinant JAK3, 1 hour at 25° C., 1% DMSO; read-out: Enzymology (IC50) JAK3
pIC50: −log10 of the molar value.
measurement name: pIC50

# example entries with known answers
structure smiles	reported
COc1cc2c(cc1N)c(=O)n(C)c1cnc(Nc3ccc(OCCN4CCCC4)cc3)nc21	6.00 to 7.00
CN1CCN(c2cccc(Nc3ncc4c(n3)c3ccc(N)cc3c(=O)n4C)c2)CC1	7.00 to 7.60
Cn1c(=O)c2cc(N)ccc2c2nc(Nc3cccc(N)c3)ncc21	7.00 to 7.60
Cn1c(=O)c2cc(N)ccc2c2nc(Nc3ccc(F)c(N)c3)ncc21	7.00 to 7.60
Cn1c(=O)c2cc(N)ccc2c2nc(Nc3ccc(OCCN4CCCC4)cc3)ncc21	6.00 to 7.00

Incoming: So what's the measured pIC50 for this one? `CN1CCN(c2ccc(Nc3ncc4c(n3)c3ccc(N)cc3c(=O)n4C)cc2)CC1`
Outgoing: 7.00 to 7.60

Incoming: I'd like to know its pIC50. The molecule in question is `COc1cc2c(cc1N)c(=O)n(C)c1cnc(Nc3cc(N)cc(F)c3)nc21`
Outgoing: 6.00 to 7.00

Incoming: Could you share which pIC50 value was measured for `COc1cc2c(cc1N)c(=O)n(C)c1cnc(Nc3ccc(F)c(N)c3)nc21` ?
Outgoing: 6.00 to 7.00

Incoming: Look at this molecule and give its reported pIC50. `COc1cc2c(cc1N)c(=O)n(C)c1cnc(Nc3ccc(N4CCN(C)CC4)cc3)nc21`
Outgoing: 7.00 to 7.60
